- PROTOCOL DESCRIPTION: Stability in human plasma (enzymatic hydrolysis)
- CONDITION SET: 72h
Degradation (%) 72h less than 40% is MET; Degradation (%) 72h greater than or equal to 40% is NOT MET.

Example cases with answers are listed next.
{"COMPOUND": "CCCCCCCCOC(=O)c1cc([N+](=O)[O-])cc(C(F)(F)F)c1", "LABEL VALUE": "NOT MET"}
{"COMPOUND": "CCCCCCCCCCCCNC(=O)c1cc([N+](=O)[O-])cc(C(F)(F)F)c1", "LABEL VALUE": "MET"}

(Q) Does the reported Degradation (%) 72h of the following compound sit strictly below 40%? CCCCCCCCCCCCCCCCOC(=O)c1cc([N+](=O)[O-])cc([N+](=O)[O-])c1 [Compound 3g, Hexadecyl 3,5-dinitrobenzoate]
(A) MET

(Q) Also check CCCCCCCCCCOC(=O)c1cc([N+](=O)[O-])cc([N+](=O)[O-])c1 [Compound 3d, Decyl 3,5-dinitrobenzoate]
(A) NOT MET

(Q) For "CCCCCCOC(=O)c1cc([N+](=O)[O-])cc(C(F)(F)F)c1" then?
(A) NOT MET

(Q) Would you mind doing "CCCCOC(=O)c1cc([N+](=O)[O-])cc([N+](=O)[O-])c1" as well?
(A) NOT MET

meta.source: patent EP4345091A1
